Molecular target: Nuclear receptor ROR-gamma (Mus musculus) (UniProt P51450)
Sequence (P51450 whole entry, looked up): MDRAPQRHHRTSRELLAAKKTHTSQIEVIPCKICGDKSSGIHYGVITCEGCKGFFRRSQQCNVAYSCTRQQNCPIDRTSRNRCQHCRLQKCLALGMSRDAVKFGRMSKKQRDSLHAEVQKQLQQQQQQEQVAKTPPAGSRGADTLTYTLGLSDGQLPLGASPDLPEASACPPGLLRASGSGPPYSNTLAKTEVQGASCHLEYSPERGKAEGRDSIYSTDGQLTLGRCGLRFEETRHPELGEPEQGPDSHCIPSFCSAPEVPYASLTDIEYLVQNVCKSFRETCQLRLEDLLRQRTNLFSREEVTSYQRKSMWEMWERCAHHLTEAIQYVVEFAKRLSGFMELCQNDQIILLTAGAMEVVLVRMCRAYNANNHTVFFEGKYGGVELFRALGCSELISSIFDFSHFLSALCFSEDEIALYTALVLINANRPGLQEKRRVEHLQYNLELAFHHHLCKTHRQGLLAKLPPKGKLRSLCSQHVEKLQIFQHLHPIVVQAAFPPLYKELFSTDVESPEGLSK
Assay: qHTS for inhibitors of ROR gamma transcriptional activity; note: nearly all actives have a fitted effect of over 60% in size
Details: Drosophila S2 Gal4-RORgamma UAS-luciferase reporter, 20 h; series mostly up to 53.6 µM
The campaign covered roughly 310,000 compounds. About 17,000 (5.5%) were called active. Another 11% or so got no clear call; they are omitted. Calls come from the whole dose curve; as a rule, active = well fitted inhibition curve with a large enough effect; inconclusive = small, poorly fitted or top-dose-only effect, or effect the other way; inactive = no such curve, though single readings can be large or run the other way. Shown is part of a subset that was picked to be rich in actives.
Outcomes: active, inactive

- Molecule: "S=C1SCN(CCN2CCOCC2)CN1Cc1ccccc1"
  Discrete Label: "inactive"
- Molecule: "CC12CN(Cc3ccccc3)CC(C)(CN(Cc3ccccc3)C1)C2=NO"
  Discrete Label: "inactive"
- Molecule: "O=S(=O)(c1cc(Cl)ccc1Cl)N1CCN(Cc2ccco2)CC1"
  Discrete Label: "inactive"
- Molecule: "Cn1c2c(c(=O)n(C)c1=O)CN(Cc1ccco1)CN2"
  Discrete Label: "inactive"
- Molecule: "c1ccc(CCN2CN=C(Nc3nc4ccccc4o3)NC2)cc1"
  Discrete Label: "inactive"
- Molecule: "CCCN1CNC(=S)N(CCc2ccccc2)C1"
  Discrete Label: "active"

---

Target: Nuclear receptor ROR-gamma (Mus musculus)
Experiment: qHTS for inhibitors of ROR gamma transcriptional activity; note: nearly all actives have a fitted effect of over 60% in size
Details: Drosophila S2 Gal4-RORgamma UAS-luciferase reporter, 20 h; series mostly up to 53.6 µM
In all, about 310,000 compounds went through this assay and about 17,000 (5.5%) were called active. Not shown: some 11% with an inconclusive outcome. Calls come from the whole dose curve; as a rule, active = well fitted inhibition curve with a large enough effect; inconclusive = small, poorly fitted or top-dose-only effect, or effect the other way; inactive = no such curve, though single readings can be large or run the other way. This is one part of a sample in which actives are shown more often than they occur.
Classes used: Yes = active, No = inactive

- Compound: "COc1ccc(NC(=O)CC2C(=O)NC3CCCCC3N2C(=O)c2ccc(F)cc2)cc1 (stereo not given)"
  Discrete Label: "No"
- Compound: "CC1=CC(C)(C)Nc2ccc(OC(=O)CN3C(=O)C4CCCCC4C3=O)cc21 (stereo not given)"
  Discrete Label: "Yes"
- Compound: "O=C(NCc1ccccn1)C1CCN(S(=O)(=O)c2ccc(Br)cc2)CC1"
  Discrete Label: "No"
- Compound: "CC(=O)Oc1ccc2c(=O)oc(-c3ccc([N+](=O)[O-])cc3)nc2c1"
  Discrete Label: "No"
- Compound: "CC(C)c1nnc(NC(=O)CCC(=O)N2CCN(c3cccc(Cl)c3)CC2)s1"
  Discrete Label: "No"
- Compound: "Cc1cccc(NC(=S)NC23CN4CN(CN(C4)C2)C3)c1"
  Discrete Label: "No"
- Compound: "CC(C)CCn1cnc2c1c(=O)n(CC(=O)NC(N)=O)c(=O)n2Cc1ccccc1"
  Discrete Label: "No"
- Compound: "COC(=O)[C@@H]1CC(O)CN1C(=O)C12CC3CC(CC(C3)C1)C2 (stereo not given in full)"
  Discrete Label: "No"
- Compound: "Cc1cc(NC(=O)Nc2ccc(Cl)cc2)n(-c2ccccc2)n1"
  Discrete Label: "No"
- Compound: "Cc1cccc(NC(=S)NCCN(C2CCCCC2)C2CCCC2)c1"
  Discrete Label: "Yes"

---

Biological target: Nuclear receptor ROR-gamma (Mus musculus)
Experiment: qHTS for inhibitors of ROR gamma transcriptional activity; note: nearly all actives have a fitted effect of over 60% in size
Settings: Drosophila S2 Gal4-RORgamma UAS-luciferase reporter, 20 h; series mostly up to 53.6 µM
Out of some 310,000 compounds screened, about 17,000 (5.5%) were called active. Another 11% or so got no clear call; they are omitted. The call rests on the fitted dose curve; in most records, active means well fitted inhibition curve with a large enough effect; inconclusive means small, poorly fitted or top-dose-only effect, or effect the other way; inactive means no such curve, though single readings can be large or run the other way. The sample holds actives, similar compounds and a random draw of the others, so the mix is not that of the screen.
Classes used: active, inactive

- Molecule: "CCNC(=S)N1CCN(C(=O)c2ccco2)CC1"
  Discrete Label: "inactive"
- Molecule: "O=C(O)C1CC=CCC1C(=O)Nc1ccccc1C(=O)N1CCN(c2ccccc2)CC1 (stereo not drawn)"
  Discrete Label: "inactive"
- Molecule: "Cc1nnc(NC(=O)/C=C/c2ccco2)s1"
  Discrete Label: "inactive"
- Molecule: "Oc1ccc(CN2CCN(c3ncccn3)CC2)cc1"
  Discrete Label: "inactive"
- Molecule: "Cc1ccc(OCC(=O)NC(C)c2ccccc2)cc1C (stereo not drawn)"
  Discrete Label: "inactive"
- Molecule: "N#Cc1c(N2CCCCC2)nc(N)c2c(N)nc(SCC(=O)O)cc12"
  Discrete Label: "active"
- Molecule: "Cc1cc(C)nc(N/N=C/c2c(CO)cnc(C)c2O)n1"
  Discrete Label: "inactive"
- Molecule: "Cc1cccc(N2CCN(C(=O)/C=C/c3ccco3)CC2)c1C"
  Discrete Label: "inactive"
- Molecule: "O=C1C(=O)N(CCCN2CCOCC2)C(c2ccc([N+](=O)[O-])cc2)/C1=C(\\O)c1ccc2c(c1)OCCO2 (stereo not drawn)"
  Discrete Label: "inactive"
- Molecule: "Cc1cccc(OCC(=O)Nc2ccc(NC(=O)c3ccco3)c(C)c2)c1"
  Discrete Label: "inactive"
- Molecule: "CCOC(=O)N1CCN(C(=O)COc2ccc(Cl)cc2C)CC1"
  Discrete Label: "inactive"
- Molecule: "COc1ccc(CCN2C(=O)C(C)=C(C)C2=O)cc1OC"
  Discrete Label: "inactive"
- Molecule: "Cc1cc(C)c(C#N)c(N2CCC(C(N)=O)CC2)n1"
  Discrete Label: "inactive"
- Molecule: "CC(=O)Nc1ccc(NC(=S)NC(=O)/C=C/c2ccccc2)cc1"
  Discrete Label: "inactive"
- Molecule: "COc1cccc(N(C(=O)CNC(=O)c2ccco2)C(C(=O)NC2CCCCC2)c2cccnc2)c1 (stereo not drawn)"
  Discrete Label: "inactive"
- Molecule: "Cc1nn(CC(=O)Nc2nc3ccccc3s2)c(C)c1[N+](=O)[O-]"
  Discrete Label: "inactive"
- Molecule: "Cc1cc(=O)n2nc(N3CCCC(C(=O)NCc4ccc(Cl)cc4)C3)sc2n1 (stereo not drawn)"
  Discrete Label: "inactive"
- Molecule: "COc1ccccc1/C=C/C(=O)NC(=S)N1CCOCC1"
  Discrete Label: "active"
- Molecule: "O=C(CN1C(=O)/C(=C\\c2ccccc2F)SC1=S)Nc1nc2ccccc2s1"
  Discrete Label: "active"
- Molecule: "O=C(c1cccc(C(=O)N2CCN(c3ccc(F)cc3)CC2)c1)N1CCN(c2ccc(F)cc2)CC1"
  Discrete Label: "inactive"
- Molecule: "Cc1ccc(NC(=O)[C@H](Cc2ccccc2)NC(=O)C2CCNCC2)cc1"
  Discrete Label: "inactive"
- Molecule: "COc1ccccc1C(=O)Nc1cccc(C(=O)N2CCOCC2)c1"
  Discrete Label: "inactive"
- Molecule: "O=C(/C=C/c1ccco1)NC(=S)Nc1ccccc1Br"
  Discrete Label: "active"

Ref: PubChem BioAssay AID2551
